B1: library; numbered along this chain (parent)
chain: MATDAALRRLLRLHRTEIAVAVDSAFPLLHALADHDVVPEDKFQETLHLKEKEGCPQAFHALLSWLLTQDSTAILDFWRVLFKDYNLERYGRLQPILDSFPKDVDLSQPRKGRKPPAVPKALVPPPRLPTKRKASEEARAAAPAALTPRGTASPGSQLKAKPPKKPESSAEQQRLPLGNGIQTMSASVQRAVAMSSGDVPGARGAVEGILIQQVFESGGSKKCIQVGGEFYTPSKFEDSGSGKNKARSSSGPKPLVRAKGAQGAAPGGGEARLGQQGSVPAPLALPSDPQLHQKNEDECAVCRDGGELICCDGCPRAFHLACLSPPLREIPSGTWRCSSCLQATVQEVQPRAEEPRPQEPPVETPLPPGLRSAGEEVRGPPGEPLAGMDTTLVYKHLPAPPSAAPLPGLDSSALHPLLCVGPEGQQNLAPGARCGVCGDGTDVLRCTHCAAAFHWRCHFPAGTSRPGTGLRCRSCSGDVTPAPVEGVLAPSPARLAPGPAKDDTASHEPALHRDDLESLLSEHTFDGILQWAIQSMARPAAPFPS

- Variants of: B1
- assayName: AIRE transcriptional activation functional score (insulin promoter-GFP; nonsense median 0, synonymous median 1) (normalised score); higher = higher AIRE activity (more reporter activation)
- measurementSetup: with insulin promoter-GFP reporter in HEK293
valueKind: AIRE transcriptional activation functional score
Lab note: record the figure alone, no unit after it.

Examples with answers:
{"sequenceChange": "C340L", "testResult": 1.13}
{"sequenceChange": "A432F", "testResult": 1.06}
{"sequenceChange": "P542W", "testResult": 0.476}

Please fill in: AIRE transcriptional activation functional score reported for G268I = 1.19

Given item R351Q , the value recorded as its AIRE transcriptional activation functional score is 1.44

Value of AIRE transcriptional activation functional score reported for the variant L327G is 0.535

The variant identified as G333P registered its AIRE transcriptional activation functional score at 0.594

Looking up L529I , I found its AIRE transcriptional activation functional score recorded as 1.17

AIRE transcriptional activation functional score in this record for H415L : 1.22

Lab book: AIRE transcriptional activation functional score of Y394V noted as 0.926

Entry C223Q — recorded AIRE transcriptional activation functional score = 0.474

Short answer for Q349H : AIRE transcriptional activation functional score was 0.951

Input E216Q . Output AIRE transcriptional activation functional score: 0.964

// recorded AIRE transcriptional activation functional score for P116N : 2.06

Field AIRE transcriptional activation functional score (entry G227N ) reads 0.587

Lab note: measured AIRE transcriptional activation functional score of R272G was 0.842

For L32P the variant record lists AIRE transcriptional activation functional score as -0.841
